FYI, the data here is from PubChem BioAssay (NCATS).

experiment: qHTS profiling of the MIPE4 collection as inhibitors of Plasmodium falciparum (3D7) proliferation (AID 743344); details: P. falciparum 3D7 in erythrocytes, SYBR Green DNA fluorescence, 72 h; at 28.5 µM unless noted
Classify as follows. Reported parasite growth, % of DMSO control greater than or equal to 10%: criterion met. Reported parasite growth, % of DMSO control below: criterion not met.

Answered examples (4):
compound=COc1cc(Nc2ncc(F)c(Nc3ccc4c(n3)N(COP(=O)(O)O)C(=O)C(C)(C)O4)n2)cc(OC)c1OC group="criterion met"
compound=NC(=O)c1cccc2cn(-c3ccc([C@@H]4CCCNC4)cc3)nc12 group="criterion met"
compound=CCNC(=O)Nc1ccc2ncc(Nc3ccc(C)cc3)nc2n1 group="criterion met"
compound="Cn1c2cc(S(C)=O)sc2c2cnn(Cc3cccc(N)c3)c(=O)c21 (centres undefined)" group="criterion met"

Next up:
I'd appreciate it if you could say whether CCc1c2c(nc3ccc(O)cc13)-c1cc3c(c(=O)n1C2)COC(=O)[C@]3(O)CC has parasite growth, % of DMSO control at least equal to 10%. criterion met
